As shown below, each of these compounds has a reported pronephric angle neck segment value.
Tested on: Danio rerio Tg(wt1b:EGFP) embryo, pronephros
Assay: pronephric angle neck segment to proximal convoluted tubule (mean of left and right), fold change vs DMSO control; higher = larger pronephric angle
Details: 25 µM; exposure: 24-48 hpf
Give only the figure.

Completed entries (count: 2):
compound	endpoint_label	quantitative_readout
CC(=O)OC[C@H]1O[C@@H]([S-])[C@H](OC(C)=O)[C@@H](OC(C)=O)[C@@H]1OC(C)=O.CCP(CC)CC.[Au+]	pronephric angle neck segment	1.19
COC(=O)Nc1nc2cc(C(=O)c3cccs3)ccc2[nH]1	pronephric angle neck segment	1.87

Answer with the recorded pronephric angle neck segment for the compound listed here: CCCCNc1cc(C(=O)O)cc(S(N)(=O)=O)c1Oc1ccccc1 [Bumetanide]
1

Answer with the recorded pronephric angle neck segment for the compound listed here: C[C@]12CCC(=O)C=C1CC[C@@H]1[C@@H]2[C@@H](O)C[C@@]2(C)[C@H]1CC[C@]2(O)C(=O)CO [Hydrocortisone base]
0.95

Answer with the recorded pronephric angle neck segment for the compound listed here: `COc1ccc2cc([C@H](C)C(=O)O)ccc2c1`
1.52
